target: c-Mer (Homo sapiens (Human), UniProt Q12866); experiment: TAM Kinase Assay (HTRF), c-Mer; type: biochemical; conditions: 0.0625 nM c-Mer, HTRF, 60 min room temperature; read-out: c-Mer IC50
Sequence (Q12866 21-999): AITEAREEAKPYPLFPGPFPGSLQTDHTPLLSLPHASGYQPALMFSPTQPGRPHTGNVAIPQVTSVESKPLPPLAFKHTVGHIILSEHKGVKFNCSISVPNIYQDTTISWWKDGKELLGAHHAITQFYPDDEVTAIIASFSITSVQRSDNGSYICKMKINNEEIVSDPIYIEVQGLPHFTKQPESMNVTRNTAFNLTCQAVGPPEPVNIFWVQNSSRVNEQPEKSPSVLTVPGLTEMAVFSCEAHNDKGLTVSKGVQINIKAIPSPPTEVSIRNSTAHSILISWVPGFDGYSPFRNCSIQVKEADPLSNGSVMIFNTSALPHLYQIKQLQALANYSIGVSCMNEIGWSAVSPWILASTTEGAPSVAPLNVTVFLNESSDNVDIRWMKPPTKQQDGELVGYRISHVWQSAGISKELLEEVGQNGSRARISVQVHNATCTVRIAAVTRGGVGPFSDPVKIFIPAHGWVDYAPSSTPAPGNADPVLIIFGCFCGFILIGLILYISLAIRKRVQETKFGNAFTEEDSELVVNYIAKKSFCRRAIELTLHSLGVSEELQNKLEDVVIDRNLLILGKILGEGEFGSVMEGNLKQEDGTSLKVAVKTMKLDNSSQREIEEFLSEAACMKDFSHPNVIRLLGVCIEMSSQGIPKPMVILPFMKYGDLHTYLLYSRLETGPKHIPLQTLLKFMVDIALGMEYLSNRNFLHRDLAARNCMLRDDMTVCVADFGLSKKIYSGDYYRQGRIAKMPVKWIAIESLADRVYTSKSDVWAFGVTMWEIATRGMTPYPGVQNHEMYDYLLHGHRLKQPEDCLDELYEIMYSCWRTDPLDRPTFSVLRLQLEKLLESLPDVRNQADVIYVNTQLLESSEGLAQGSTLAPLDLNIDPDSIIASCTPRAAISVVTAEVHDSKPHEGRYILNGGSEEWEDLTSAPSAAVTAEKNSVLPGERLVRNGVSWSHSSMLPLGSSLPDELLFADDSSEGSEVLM
pIC50: −log10 of the molar value.
Measured pIC50 accompanies every entry in the list below.

[in] Complete the entry with pIC50 for COCC1(c2cccc(-c3ncnc4[nH]ccc34)c2)Cc2ccccc2C1
[out] < 5.52

[in] Look up pIC50 of CS(=O)(=O)NCC1(c2cccc(-c3ncnc4[nH]ccc34)c2)Cc2ccccc2C1 and report it.
[out] 5.52 to 6.00

[in] Provide only the value of recorded pIC50 for NCC1(c2cccc(-c3ncnc4[nH]ccc34)n2)Cc2ccccc2C1
[out] 5.52 to 6.00

====

// reported pIC50 per item
target: phosphor-Axl (Homo sapiens (Human)); assay: TAM Kinase Assay (HTRF), phosphor-Axl; assay type: biochemical; conditions: 5.1 nM phosphor-Axl, HTRF, 60 min room temperature; read-out: Phospho-Axl IC50;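 further: test enzyme was recombinant Axl protein, pre-activated by autophosphorylation with ATP and MgCl2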
Sequence (P30530 26-894): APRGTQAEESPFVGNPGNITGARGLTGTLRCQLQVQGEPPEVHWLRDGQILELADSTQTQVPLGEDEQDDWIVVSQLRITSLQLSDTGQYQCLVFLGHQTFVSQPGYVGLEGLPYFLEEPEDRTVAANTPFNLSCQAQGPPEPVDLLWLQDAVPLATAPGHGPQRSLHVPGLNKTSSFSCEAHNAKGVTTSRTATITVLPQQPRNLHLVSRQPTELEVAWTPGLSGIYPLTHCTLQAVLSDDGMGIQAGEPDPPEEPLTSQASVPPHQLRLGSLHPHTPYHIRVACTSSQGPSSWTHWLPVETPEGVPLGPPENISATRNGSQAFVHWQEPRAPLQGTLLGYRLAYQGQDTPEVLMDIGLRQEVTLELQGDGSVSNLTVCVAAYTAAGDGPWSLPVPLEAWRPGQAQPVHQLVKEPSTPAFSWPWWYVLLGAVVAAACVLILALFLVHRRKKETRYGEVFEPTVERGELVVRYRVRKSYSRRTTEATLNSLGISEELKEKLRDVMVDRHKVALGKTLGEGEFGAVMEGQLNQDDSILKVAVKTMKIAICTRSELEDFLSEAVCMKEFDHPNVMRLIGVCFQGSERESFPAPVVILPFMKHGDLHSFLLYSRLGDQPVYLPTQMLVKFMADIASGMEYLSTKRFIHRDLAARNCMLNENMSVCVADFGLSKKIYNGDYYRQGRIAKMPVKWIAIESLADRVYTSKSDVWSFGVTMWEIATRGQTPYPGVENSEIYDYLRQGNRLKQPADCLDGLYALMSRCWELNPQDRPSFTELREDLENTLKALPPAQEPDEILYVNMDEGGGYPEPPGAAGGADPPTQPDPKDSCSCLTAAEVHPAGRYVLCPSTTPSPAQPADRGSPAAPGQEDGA
pIC50: −log10 of the molar value.

Solved entries:
[[record]]
compound = "CS(=O)(=O)NCC1(c2cccc(-c3ncnc4[nH]ccc34)c2)Cc2ccccc2C1 [Example 21]"
property = "pIC50"
experimental_result = "6.00 to 6.30"

[[record]]
compound = "NCC1(c2cc(-c3ncnc4[nH]ccc34)cc(Cl)n2)Cc2ccccc2C1 [Example 7]"
property = "pIC50"
experimental_result = "> 6.30"

[[record]]
compound = "CN(C)CC1(c2cccc(-c3ncnc4[nH]ccc34)c2)Cc2ccccc2C1 [Example 23]"
property = "pIC50"
experimental_result = "> 6.30"


[in] # return recorded pIC50 for entry CC(=O)NCC1(c2cc(-c3ncnc4[nH]ccc34)ccn2)Cc2ccccc2C1 [Example 8]
[out] 5.52 to 6.00

====

biological target: c-Mer (Homo sapiens (Human), UniProt Q12866); experiment: TAM Kinase Assay (HTRF), c-Mer; format: biochemical; conditions: 0.0625 nM c-Mer, HTRF, 60 min room temperature; read-out: c-Mer IC50
Property: IC50

Some molecules with known IC50 results, for comparison:
[[record]]
molecule = "FC(F)C1(c2cccc(-c3ncnc4[nH]ccc34)c2)Cc2ccccc2C1"
experimental_result = "> 3000 nM"

[[record]]
molecule = "CNCC1(c2cccc(-c3ncnc4[nH]ccc34)c2)Cc2ccccc2C1"
experimental_result = "< 500 nM"

[[record]]
molecule = "COC(=O)NCC1(c2cccc(-c3ncnc4[nH]ccc34)c2)Cc2ccccc2C1"
experimental_result = "< 500 nM"

[[record]]
molecule = "NCC1(c2ccnc(-c3ncnc4[nH]ccc34)c2)Cc2ccccc2C1"
experimental_result = "500 to 1000 nM"


[in] Provide measured IC50 value, entry: O=C(NCC1(c2cccc(-c3ncnc4[nH]ccc34)c2)Cc2ccccc2C1)C1CC1
[out] < 500 nM

[in] Return reported IC50. Input molecule: NCC1(c2cccc(-c3ncnc4[nH]ccc34)c2)Cc2ccncc2C1 (stereo not drawn)
[out] < 500 nM

[in] Tell me its IC50 given FCC1(c2cccc(-c3ncnc4[nH]ccc34)c2)Cc2ccccc2C1 as the entry.
[out] > 3000 nM

[in] Please supply the value of reported IC50 for the item NCC1(c2cccc(-c3ncnc4[nH]ccc34)c2)Cc2cccnc2C1 (stereo not drawn)
[out] < 500 nM

[in] Look up IC50 of NCC1(c2cncc(-c3ncnc4[nH]ccc34)c2)Cc2ccccc2C1 and report it.
[out] < 500 nM

[in] Provide IC50 value for the following molecule: O=C(NCC1(c2cccc(-c3ncnc4[nH]ccc34)c2)Cc2ccccc2C1)c1cccs1
[out] > 3000 nM

[in] Hello, please tell me recorded IC50 for this one: OCC1(c2cccc(-c3ncnc4[nH]ccc34)c2)Cc2ccccc2C1
[out] < 500 nM

[in] Name the recorded IC50 of the molecule listed here: CC(=O)NCC1(c2cccc(-c3ncnc4[nH]ccc34)c2)Cc2ccccc2C1
[out] < 500 nM

[in] Name the recorded IC50 of the item NCC1(c2cc(-c3ncnc4[nH]ccc34)cc(Cl)n2)Cc2ccccc2C1 in your answer.
[out] < 500 nM

[in] Tell us which IC50 value is on record for CC(C)C(=O)NCC1(c2cccc(-c3ncnc4[nH]ccc34)c2)Cc2ccccc2C1
[out] < 500 nM

[in] State, in one line, measured IC50 of NCC1(c2cc(-c3ncnc4[nH]ccc34)ccn2)Cc2ccccc2C1
[out] < 500 nM

All figures here come from patent US10519163B2.
